tested on: UACC-257; experiment: NCI-60 SRB screen: melanoma UACC-257; type: cell-based, human; settings: UACC-257; single dose 10 µM
measure.name: Percentage Cell Growth (%)
The answer is to be given in %; state only the numeric part.

# annotated cases, reported Percentage Cell Growth shown
| compound | measurement.units | Percentage Cell Growth |
| --- | --- | --- |
| CC(=O)OCC12CCC(C(C)C(N)=O)C1C1CCC3C4(C)CCC(OC(C)=O)C(C)(C)C4CCC3(C)C1(C)CC2 (stereo not drawn) [Compound 4] | % | −46.24 |
| C=C(C)[C@@H]1CC[C@]2(C(=O)NCCCN)CC[C@]3(C)[C@H](CC[C@@H]4[C@@]5(C)CCC(=O)C(C)(C)[C@@H]5CC[C@]43C)[C@@H]12 [Compound 10] | % | −46.67 |
| C=C(C)[C@@H]1CC[C@]2(C(=O)NCCNCCNCCN)CC[C@]3(C)[C@H](CC[C@@H]4[C@@]5(C)CC[C@H](O)C(C)(C)[C@@H]5CC[C@]43C)[C@@H]12 [Compound 6] | % | −39.58 |
| C=C(C)[C@@H]1CC[C@]2(C(=O)NCCNCCNCCN)CC[C@]3(C)[C@H](CC[C@@H]4[C@@]5(C)CCC(=O)C(C)(C)[C@@H]5CC[C@]43C)[C@@H]12 [Compound 11] | % | −10.66 |
| C=C(C)[C@@H]1CC[C@]2(C(=O)OC)CC[C@]3(C)[C@H](CC[C@@H]4[C@@]5(C)CCC(=NOCCC(=NOCCC#N)NCCC#N)C(C)(C)[C@@H]5CC[C@]43C)[C@@H]12 [Compound 21] | % | 8.82 |

INPUT: GET /values?readout=Percentage Cell Growth&system=UACC-257&item= C=C(C)[C@@H]1CC[C@]2(C(N)=O)CC[C@]3(C)[C@H](CC[C@@H]4[C@@]5(C)CC[C@H](O)C(C)(C)[C@@H]5CC[C@]43C)[C@@H]12 [Compound 5]
OUTPUT: −6.08

---

We begin with a simple list: items and their reported Percentage Cell Growth.
test system: SK-MEL-28; assay: NCI-60 SRB screen: melanoma SK-MEL-28; assay type: cell-based, human; details: SK-MEL-28; single dose 10 µM
Quick reminder: number only, in %, skip the unit.

INPUT: Reported Percentage Cell Growth, compound C=C(C)[C@@H]1CC[C@]2(C(=O)NCCNCCNCCN)CC[C@]3(C)[C@H](CC[C@@H]4[C@@]5(C)CCC(=O)C(C)(C)[C@@H]5CC[C@]43C)[C@@H]12 [Compound 11] : ____
OUTPUT: −73.91

INPUT: Another compound: C=C(C)[C@@H]1CC[C@]2(C(=O)OC)CC[C@]3(C)[C@H](CC[C@@H]4[C@@]5(C)CCC(=NOCCC(=NOCCC#N)NCCC#N)C(C)(C)[C@@H]5CC[C@]43C)[C@@H]12 [Compound 21]
OUTPUT: 29.25

INPUT: Entry C=C(C)[C@@H]1CC[C@]2(C(=O)NCCNCCNCCN)CC[C@]3(C)[C@H](CC[C@@H]4[C@@]5(C)CC[C@H](O)C(C)(C)[C@@H]5CC[C@]43C)[C@@H]12 [Compound 6] please
OUTPUT: −98.68

INPUT: What do we get for C=C(C)[C@@H]1CC[C@]2(C(=O)NCCCN)CC[C@]3(C)[C@H](CC[C@@H]4[C@@]5(C)CCC(=O)C(C)(C)[C@@H]5CC[C@]43C)[C@@H]12 [Compound 10] ?
OUTPUT: −31.42

INPUT: Now give it for C=C(C)[C@@H]1CC[C@]2(C(N)=O)CC[C@]3(C)[C@H](CC[C@@H]4[C@@]5(C)CC[C@H](O)C(C)(C)[C@@H]5CC[C@]43C)[C@@H]12 [Compound 5] too.
OUTPUT: 0.38

INPUT: Repeat for the following compound: CC(=O)OCC12CCC(C(C)C(N)=O)C1C1CCC3C4(C)CCC(OC(C)=O)C(C)(C)C4CCC3(C)C1(C)CC2 (stereo not drawn) [Compound 4]
OUTPUT: −73.19

Source listed as paper PMC7587962.
